Collected melting point values appear next to each entry.

Some solved cases for reference:
# smiles, measurement-type, measured-result
measured = [
    ("CC1(C)C(=O)C(C)(C)c2cc(N)c(N)cc21", "melting point", "179 to 180 °C"),
    ("O=C(O)c1cccc(Cc2cc(Cl)cc(Cc3ccccc3O)c2O)c1O", "melting point", "198 to 200 °C"),
    ("Cc1c(NC(=O)c2ccc(-c3ccccc3)c(F)c2)ccc2cc(CN3CCCCC3)cnc12", "melting point", "138 to 139 °C"),
    ("Cn1nnnc1-c1cnc2cc(F)c(F)cc2c1O", "melting point", "> 300 °C"),
]

Exercise: Any idea what melting point was measured for C=Cc1ccc2cc(C3CCN(Cc4ccccc4)CC3)ccc2c1 ?
Key: 112 to 114 °C
